The reported measurements were obtained from patent US10874643B2.

system: scn1Lab mutants; type: in vivo, zebrafish; conditions: 1 mM bath applied; agar-embedded mutants 5-6 dpf; seven fish per drug; vs baseline
TEST_READOUT: Epileptiform event frequency (burst frequency; interictal- and ictal-like discharges)

COMPOUND	EXPERIMENTAL_VALUE
CC(C)(C)C(O)/C=C/c1ccc2c(c1)OCO2 (stereo not shown)	reduced
[Br-].[K+] [potassium bromide]	reduced
